tested on: PPARg:RXRa DBDmut IVT, anti-RXR (DBD mutation: RXRa K156A/R161A, NR concentration 270 nM, RXRa partner concentration 90 nM); assay: PBM binding z-score (relative to random genomic background probes); higher = stronger binding; sequences stand for … in GC…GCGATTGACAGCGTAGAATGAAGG
Answer each item with its documented PBM binding z-score.
Please give the numeric answer without any surrounding text.

Reported PBM binding z-score of `GCTATTAATTGAAAGGGCAACCGAATGATTCTCG` : 0.162

Reported PBM binding z-score of `ATACCAGGGTGATCGTGAGGTCGTTGATACTAAC` : 0.0988

Reported PBM binding z-score of `TAGCGTAGGTCATTGGGCCAGTATAGTACGCATC` : 1.8

Reported PBM binding z-score of `TATATTAGTTGAAGGGCAACCGACGAGTCCGTTT` : 0.182

Reported PBM binding z-score of `ATCTCTAGGTAAGACTCATTTCAGTGAAGAACGC` : 2.23

Reported PBM binding z-score of `CAGCCTAGGTCAGGGCCACTATAGGAGGAACGTT` : 1.2

Reported PBM binding z-score of `GCAGACAGGTGAAACGCAGGTCACTCAGGGTGGC` : 0.839

Reported PBM binding z-score of `TGTATGAGGTTATAAGATCAGGGAACGTTGCAAA` : 0.0132

Reported PBM binding z-score of `CCGACTGGCGCAGAAAGGTTACCATACCATCCGG` : -0.18

Reported PBM binding z-score of `TCTTGTAGATCGACAGGAGGTTAAGAAAGATCGA` : 0.885

Reported PBM binding z-score of `CAAACTAGGTCAAGAGGTCAAAATCCGCTTCCCG` : 7.82

Reported PBM binding z-score of `ACAGACAGGTGCGTGAAGGTAACTCAGCTGGACG` : -0.935
